- systemName: Tyrosine-protein phosphatase non-receptor type 22 (Homo sapiens)
- assayRemarks: blockers of human LYP enzyme activity – biochemical, DiFMUP fluorescence, 2 µM, primary screen (AID 640);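 note: 0% = DMSO with enzyme and 100% = enzyme fully blocked by orthovanadate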
- conditionDetails: recombinant LYP catalytic domain, at 2 µM, active compounds read high
Screen size: about 96,000 compounds; about 200 (0.21%) were called active. Shown is part of a subset that was picked to be rich in actives.
Assign inhibition to each entry below.
Answers are plain numbers, in %.

Each compound below has a recorded value; state its inhibition.
1. COc1cccc(-c2nnc(NC(=O)c3ccc(S(=O)(=O)N(CC(C)C)CC(C)C)cc3)o2)c1
2. Cc1nnc(NC(=O)Nc2ccc(Cl)c(Cl)c2)s1
3. Cc1cccc(NC(=O)N(Cc2cc3cc(C)cc(C)c3[nH]c2=O)CC2COCCO2)c1 (centres undefined)
4. CCCCNC(=O)C1(c2ccc(OC)cc2)CCOCC1
5. CC1CCCCN1S(=O)(=O)c1ccc(C(=O)Nc2nnc(-c3cccs3)o2)cc1 (centres undefined)
6. COc1ccc([N+](=O)[O-])cc1C1NN=C(c2cccc3ccccc23)S1 (centres undefined)
7. CN1CCN(C(=O)Cn2c(C(F)(F)F)nc3ccccc32)CC1

Response line:
1: 24.4; 2: 24.4; 3: 2.6; 4: 6.4; 5: 17.2; 6: 10.1; 7: 1.3

Below is a list of compounds. For each, state its recorded inhibition.
1. O=C(Cn1c(-c2ccc(Cl)cc2)noc1=O)N1CCN(c2ccccc2F)CC1
2. COc1ccc(-n2c(C)csc2=S)cc1
3. Cn1nc(C(F)(F)F)c2cc(NC(=O)OCC(C)(C)C)sc21
4. COc1ccc2oc(=O)c(C(=O)NCc3ccccn3)cc2c1
5. COc1ccc(CNCCCO)cc1OC
6. Clc1ccccc1SCc1nc2ccccc2[nH]1

Response line:
1: 27.2; 2: -3.8; 3: -3.4; 4: -1.3; 5: 2.8; 6: 2.7

Please give inhibition for each item listed below.
1. CCCn1nnc(NC(=O)COc2ccc(CC)cc2)n1
2. CCOC(=O)NNC(=O)c1ccc(Cl)cc1
3. CCc1ccc2c(c1)C1(NN=C(c3ccccc3)S1)C(=O)N2 (centres undefined)
4. Cc1ccc(S(=O)(=O)N(CC(=O)N2CCc3ccccc3C2)c2cccc(Cl)c2)cc1
5. CC(C)n1c(-c2cccs2)nc2ccccc21

Response line:
1. 14.5
2. -7.6
3. 15.3
4. 4.6
5. -3.5

---

- systemName: Tyrosine-protein phosphatase non-receptor type 22 (Homo sapiens)
- assayRemarks: blockers of human LYP enzyme activity – biochemical, DiFMUP fluorescence, 2 µM, primary screen (AID 640);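 note: 0% = DMSO with enzyme and 100% = enzyme fully blocked by orthovanadate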
- conditionDetails: recombinant LYP catalytic domain, at 2 µM, active compounds read high
Screen size: about 96,000 compounds; about 200 (0.21%) were called active. Many of the other results were omitted from the sample, so actives are more common in it than they were.
parameterMeasured: inhibition (%)
Answers are plain numbers, in %.

Example cases with answers are listed next.
| compound | systemName | inhibition, % |
| --- | --- | --- |
| Cc1ccc(OCC(=O)N/N=C\c2ccco2)c(C)c1 | Tyrosine-protein phosphatase non-receptor type 22 (Homo sapiens) | -4.2 |
| Cc1nn(C(C)CC(=O)O)c(C)c1C (stereo not given) | Tyrosine-protein phosphatase non-receptor type 22 (Homo sapiens) | 7.9 |
| Cn1c(=O)c2c(SCC(=O)N3CCOCC3)nc(C3CC3)nc2n(C)c1=O | Tyrosine-protein phosphatase non-receptor type 22 (Homo sapiens) | 4 |

// batch mode: one inhibition value per listed entry
1. COc1ccc(/C=N/Nc2nc3ccccc3c(=O)[nH]2)cc1
2. CC(C)C(NC(=O)c1ccc(Cl)cc1)C(=O)O (stereo not given)
3. C=CCn1c(-c2ccc(Cl)cc2)ccc(C#N)c1=O
4. Cc1ccc(OCC(=O)N/N=C/c2ccncc2)cc1
5. Cc1ccc(OCC(=O)Nc2cccc3c2CCCC3)cc1C
6. Cc1nc2ccccc2n1C(=O)N1CCOCC1
7. Cc1oc(-c2ccccc2Cl)[n+]([O-])c1C

Response line:
[2.7, 0.8, 8.4, 10.7, 10, 1.2, -4.8]

# batch: return inhibition for each of the 2 compounds below
1. COC(=O)c1nc2ccccc2s1
2. Cn1c(=O)c2c(nc(N3CCOCC3)n2CCNC2=NCCC2)n(C)c1=O

Response line:
[-12, -6.1]

Hello, I would appreciate it if you could give inhibition for each entry below.
1. CC(C)(C)NS(=O)(=O)c1ccc(NC(=O)NC2CCCCC2)cc1
2. COC(=O)CNS(=O)(=O)c1ccc(OC)cc1
3. CN1CCCN(S(=O)(=O)c2ccc3c(c2)OCCO3)CC1
4. CCOC(=O)c1cnc(SCC(=O)Nc2cccc(OC)c2)nc1N
5. CCOCCCNC(=O)C(NC(=O)c1ccc(=O)[nH]c1)c1ccc(C)cc1 (stereo not given)
6. Cc1ccc(-c2cc(C(=O)NCC3CCCO3)c3ccccc3n2)o1 (stereo not given)

Response line:
[13, -2.1, 14.9, -12.3, 3, 2.7]
